# measured target: rat nNOS (Rattus norvegicus, UniProt P29476)
# Construct: made in house; host or cells: E. coli (plasmid pCWnNOS)
# assay protocol: NOS enzyme inhibitory assay (hemoglobin capture), nNOS
# Type: biochemical
# stated conditions: Table 1a; Ki(eNOS)/Ki(nNOS)
metric name: Selectivity n/e

[[record]]
molecule = "Nc1cccc(CC2CNCC2NC2CCN(Cc3ccccc3)C2)n1 (stereo not drawn) [Compound P-38]"
data_value = 66.19

[[record]]
molecule = "Nc1cccc(CC2CNCC2NCC(N)Cc2ccccc2)n1 (racemic) [Compound P-31]"
data_value = ">600"

[[record]]
molecule = "Nc1cccc(CC2CNCC2NC2CCN(Cc3ccccc3)C2)n1 (racemic) [Compound P-22]"
data_value = 6.07

[[record]]
molecule = "Nc1cccc(CC2CNCC2NCC(N)Cc2ccccc2)n1 (racemic) [Compound P-16]"
data_value = ">104.83"

[[record]]
molecule = "Cc1cc(N)nc(C[C@H]2CNC[C@@H]2NCCN)c1.Cl.Cl.Cl.Cl (racemic)"
data_value = 430.7

[[record]]
molecule = "Nc1cccc(CC2CNCC2NC2CCN(Cc3ccccc3)C2)n1 (stereo not drawn) [Compound P-36]"
data_value = 32.20

[[record]]
molecule = "Cl.Cl.Cl.Nc1cccc(CC2CNCC2NCCCc2ccccc2)n1 (racemic)"
data_value = 6.42

[[record]]
molecule = "CN(C)CCNC1CNCC1Cc1cccc(N)n1 (racemic) [Compound P-30]"
data_value = 42.02

[[record]]
molecule = "Cl.Cl.Nc1cccc(CC2CNCC2O)n1 (racemic)"
data_value = 49.11

